Values of K inact reported for Neutrophil elastase (Homo sapiens) (UniProt P08246) appear below.

Reference set (3 entries):
[
  {
    "molecule": "CC1(C)CCCC2=C1C(=O)N(COC(=O)c1c(Cl)cccc1Cl)S2(=O)=O",
    "K inact": "18500 M⁻¹ s⁻¹"
  },
  {
    "molecule": "CCC1CCCC2=C1C(=O)N(COC(=O)c1c(Cl)cccc1Cl)S2(=O)=O (stereo not given)",
    "K inact": "83000 M⁻¹ s⁻¹"
  },
  {
    "molecule": "CC(C)c1cccc2c1C(=O)N(COC(=O)c1c(Cl)cccc1Cl)S2(=O)=O",
    "K inact": "900000 M⁻¹ s⁻¹"
  }
]

(Q) I'm curious: which K inact was measured for CC1CCCC2=C1C(=O)N(COC(=O)c1c(Cl)cccc1Cl)S2(=O)=O (stereo not given) tested on Neutrophil elastase (Homo sapiens) (UniProt P08246)?
(A) 36000 M⁻¹ s⁻¹

(Q) I'm curious: which K inact was measured for CC(C)C1CCCC2=C1C(=O)N(COC(=O)c1c(Cl)cccc1Cl)S2(=O)=O (stereo not given) tested on Neutrophil elastase (Homo sapiens) (UniProt P08246)?
(A) 10000 M⁻¹ s⁻¹

====

# target-of-assay: Neutrophil elastase (Homo sapiens) (UniProt P08246)
# Sequence (whole entry): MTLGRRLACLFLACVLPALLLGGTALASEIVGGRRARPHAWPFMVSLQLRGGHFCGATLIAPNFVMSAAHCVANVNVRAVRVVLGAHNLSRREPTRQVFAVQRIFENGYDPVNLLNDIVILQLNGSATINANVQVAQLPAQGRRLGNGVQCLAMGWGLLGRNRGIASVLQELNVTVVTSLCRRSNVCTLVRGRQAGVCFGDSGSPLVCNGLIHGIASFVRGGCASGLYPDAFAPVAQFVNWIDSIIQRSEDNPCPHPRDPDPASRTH
The following molecules are shown together with reported Kreact values.
# output: bare number, implied unit s⁻¹

Reference set (4 entries):
[
  {
    "molecule": "CC(C)c1cccc2c1C(=O)N(COC(=O)c1c(Cl)cccc1Cl)S2(=O)=O",
    "value-type": "Kreact",
    "numeric-value": "2.7e-05"
  },
  {
    "molecule": "CC(C)C1CCCC2=C1C(=O)N(COC(=O)c1c(Cl)cccc1Cl)S2(=O)=O (stereo not given)",
    "value-type": "Kreact",
    "numeric-value": "1e-05"
  },
  {
    "molecule": "CC1(C)CCCC2=C1C(=O)N(COC(=O)c1c(Cl)cccc1Cl)S2(=O)=O",
    "value-type": "Kreact",
    "numeric-value": "1.8e-05"
  },
  {
    "molecule": "CC1CCCC2=C1C(=O)N(COC(=O)c1c(Cl)cccc1Cl)S2(=O)=O (stereo not given)",
    "value-type": "Kreact",
    "numeric-value": "3.6e-05"
  }
]

(Q) I'm curious: which Kreact was measured for CCC1CCCC2=C1C(=O)N(COC(=O)c1c(Cl)cccc1Cl)S2(=O)=O (stereo not given) tested on Neutrophil elastase (Homo sapiens) (UniProt P08246)?
(A) 5.8e-05

====

The following compounds are shown together with reported log10(Ki) values.
# target-of-assay: Neutrophil elastase (Homo sapiens)
# measurement-notes: Ratio of Kreact to that of Kinact was determined on human leukocyte elastase(HLE)
Units before log transform: nM; reported quantity: Ki; transform: log10.

Reference set (6 entries):
[
  {
    "compound": "CC(C)C1CCCC2=C1C(=O)N(COC(=O)c1c(Cl)cccc1Cl)S2(=O)=O (configuration not stated)",
    "log10(Ki)": 0.00
  },
  {
    "compound": "CC1(C)CCCC2=C1C(=O)N(COC(=O)c1c(Cl)cccc1Cl)S2(=O)=O",
    "log10(Ki)": 0.00
  },
  {
    "compound": "O=C(OCN1C(=O)C2=C(C3CCC2C3)S1(=O)=O)c1c(Cl)cccc1Cl (configuration not stated)",
    "log10(Ki)": -0.10
  },
  {
    "compound": "CC1CCCC2=C1C(=O)N(COC(=O)c1c(Cl)cccc1Cl)S2(=O)=O (configuration not stated)",
    "log10(Ki)": 0.00
  },
  {
    "compound": "O=C(OCN1C(=O)C2=C(CCCCC2)S1(=O)=O)c1c(Cl)cccc1Cl",
    "log10(Ki)": 2.00
  },
  {
    "compound": "O=C(OCN1C(=O)C2=C(CCC2)S1(=O)=O)c1c(Cl)cccc1Cl",
    "log10(Ki)": 0.70
  }
]

Shifting focus to the compound that follows.
(Q) What value of measured log10(Ki) is listed for CCC1CCCC2=C1C(=O)N(COC(=O)c1c(Cl)cccc1Cl)S2(=O)=O (configuration not stated) ?
(A) -0.15
